- method: in vivo test on rats, plasma concentrations after oral administration of indomethacin
- measurement.setup: rat, in vivo, powder made into a suspension immediately before use, one hour
experimental.endpoint: concentration at 1 h

Supply measured concentration at 1 h of COc1ccc2c(c1)c(CC(=O)O)c(C)n2C(=O)c1ccc(Cl)cc1 in your reply.
1000 to 5000 ng/mL

###

- method: in vivo test on rats, plasma concentrations after oral administration of indomethacin
- measurement.setup: rat, in vivo, powder made into a suspension immediately before use, two hours
experimental.endpoint: concentration at 2 h

Complete the entry with concentration at 2 h for COc1ccc2c(c1)c(CC(=O)O)c(C)n2C(=O)c1ccc(Cl)cc1
1000 to 4000 ng/mL
